# tested on: DNMT1 (Homo sapiens)
# Sequence (P26358 whole entry): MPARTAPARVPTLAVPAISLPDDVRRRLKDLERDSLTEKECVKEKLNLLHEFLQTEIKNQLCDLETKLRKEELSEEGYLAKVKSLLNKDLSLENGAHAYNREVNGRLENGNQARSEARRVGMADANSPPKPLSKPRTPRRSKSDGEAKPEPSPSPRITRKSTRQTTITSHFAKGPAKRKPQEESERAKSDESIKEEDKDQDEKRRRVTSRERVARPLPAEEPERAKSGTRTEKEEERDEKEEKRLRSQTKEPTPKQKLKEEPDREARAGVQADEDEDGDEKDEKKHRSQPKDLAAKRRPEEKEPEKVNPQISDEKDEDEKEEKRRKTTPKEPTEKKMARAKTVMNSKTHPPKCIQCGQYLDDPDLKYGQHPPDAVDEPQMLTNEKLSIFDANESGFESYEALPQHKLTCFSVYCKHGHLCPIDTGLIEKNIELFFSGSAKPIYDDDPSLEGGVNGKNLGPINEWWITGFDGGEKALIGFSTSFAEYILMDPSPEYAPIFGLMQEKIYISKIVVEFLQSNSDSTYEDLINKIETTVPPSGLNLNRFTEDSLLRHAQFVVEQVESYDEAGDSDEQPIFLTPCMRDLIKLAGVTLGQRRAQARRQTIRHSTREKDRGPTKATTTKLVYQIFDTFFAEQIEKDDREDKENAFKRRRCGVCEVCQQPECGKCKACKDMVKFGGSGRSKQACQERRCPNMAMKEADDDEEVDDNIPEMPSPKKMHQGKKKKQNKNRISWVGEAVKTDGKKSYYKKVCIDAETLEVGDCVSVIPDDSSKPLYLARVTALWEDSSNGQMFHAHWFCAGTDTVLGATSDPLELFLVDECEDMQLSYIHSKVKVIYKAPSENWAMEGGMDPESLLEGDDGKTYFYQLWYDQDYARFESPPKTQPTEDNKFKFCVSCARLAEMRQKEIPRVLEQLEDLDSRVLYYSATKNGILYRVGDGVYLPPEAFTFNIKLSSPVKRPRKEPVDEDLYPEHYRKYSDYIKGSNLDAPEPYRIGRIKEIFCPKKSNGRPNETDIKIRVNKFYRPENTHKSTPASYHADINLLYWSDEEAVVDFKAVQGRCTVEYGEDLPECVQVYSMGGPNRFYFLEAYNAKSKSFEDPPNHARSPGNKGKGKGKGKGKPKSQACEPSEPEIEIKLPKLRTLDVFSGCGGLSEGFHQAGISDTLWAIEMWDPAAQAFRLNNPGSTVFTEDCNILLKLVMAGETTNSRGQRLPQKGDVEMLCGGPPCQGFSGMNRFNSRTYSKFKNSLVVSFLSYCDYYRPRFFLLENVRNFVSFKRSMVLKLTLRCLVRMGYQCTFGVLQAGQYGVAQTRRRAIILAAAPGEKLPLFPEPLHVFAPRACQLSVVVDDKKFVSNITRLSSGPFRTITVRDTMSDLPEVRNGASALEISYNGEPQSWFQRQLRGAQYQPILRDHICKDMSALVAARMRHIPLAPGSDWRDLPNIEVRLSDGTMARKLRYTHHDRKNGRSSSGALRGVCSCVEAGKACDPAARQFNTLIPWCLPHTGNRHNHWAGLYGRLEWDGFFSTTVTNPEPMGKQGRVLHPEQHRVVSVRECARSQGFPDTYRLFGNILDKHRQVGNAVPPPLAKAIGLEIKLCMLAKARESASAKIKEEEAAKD
# protocol summary: Selective depletion of DNMT1 by Western blot in treated HCT116 cells
# Assay type: cell-based
# Parameters: Protein extracts (equivalent to 100 μg) were isolated from HCT116 cells; endogenous in cells; host or cells: HCT116
# cond: 10 μM
Structures can show the parent of a compound that is named as a salt.
Readings of % DNMT1 Level for the listed compounds
# output: bare number, implied unit %

compound=C[n+]1ccc(Nc2ccc(C(=O)Nc3ccc(Nc4ccnc5ccccc45)cc3)cc2)cc1.Cl.[Cl-] result_units=% endpoint_result=103
compound=C[n+]1ccc(Nc2ccc(C(=O)Nc3ccc(Nc4ccnc5cc([N+](=O)[O-])ccc45)cc3)cc2)cc1.Cl.[Cl-] result_units=% endpoint_result=53

Incoming: Lab request: please report % DNMT1 Level under test system DNMT1 (Homo sapiens) for `C[n+]1ccc(Nc2cccc(C(=O)Nc3ccc(Nc4ccnc5cc(N)ccc45)cc3)c2)cc1.Cl.[Cl-]`
Outgoing: 98

Incoming: Lab request: please report % DNMT1 Level under test system DNMT1 (Homo sapiens) for Cc1cc(Nc2ccc(NC(=O)c3ccc(Nc4ccnc5ccccc45)cc3)cc2)nc(N)n1 [Cpd. E, hydrochloride]
Outgoing: 0.5

###

Where a name gives a salt, the structure may show the parent alone.
Readings of melting point for the listed molecules

As a guide, the following entries are already answered.
molecule="Cc1cc(Nc2ccc(NC(=O)c3ccc(Nc4ccnc5c(F)c(F)c(F)cc45)cc3)cc2)nc(N)n1 (as salt: hydrochloride) [Cpd. KK, dihydrochloride]" endpoint_result="> 280 °C"
molecule="Cc1cc(Nc2cccc(C(=O)Nc3ccc(Nc4ccnc5ccc(N)cc45)cc3)c2)nc(N)n1 (as salt: hydrochloride) [RR3, dihydrochloride]" endpoint_result="280 to 284 °C"
molecule="C/C(=N\\N=C(N)N)c1ccc(NC(=O)c2ccc(Nc3ccnc4ccc(N(C)C)cc34)cc2)cc1 (as salt: hydrochloride) [Cpd. NN, Dihydrochloride]" endpoint_result="> 280 °C"

Incoming: Which melting point value is on record for Cc1cc(Nc2ccc(C(=O)Nc3ccc(Nc4ccnc5ccc(N)cc45)cc3)cc2)nc(N)n1 (as salt: hydrochloride) [Cpd. GG3, dihydrochloride] ?
Outgoing: > 300 °C

Incoming: Which melting point value is on record for C[n+]1ccc(Nc2ccc(C(=O)Nc3ccc(Nc4ccnc5ccc(N)cc45)cc3)cc2)cc1 (as salt: chloride) ?
Outgoing: > 300 °C

Incoming: Which melting point value is on record for `C[n+]1ccc(Nc2cccc(NC(=O)c3ccc(Nc4ccnc5ccc(N)cc45)cc3)c2)cc1` ?
Outgoing: 270 to 274 °C

Incoming: Which melting point value is on record for C[n+]1ccc(Nc2cccc(NC(=O)c3ccc(Nc4ccnc5cc([N+](=O)[O-])ccc45)cc3)c2)cc1 (as salt: chloride) ?
Outgoing: 303 °C (dec.)

Incoming: Which melting point value is on record for `Cc1cc(Nc2ccc(NC(=O)c3ccc(Nc4ccnc5ccc(N(C)C)cc45)cc3)cc2)nc(N)n1.Cl` ?
Outgoing: 260 to 265 °C

Incoming: Which melting point value is on record for `C[n+]1ccc(Nc2ccc(NC(=O)c3ccc(Nc4ccnc5ccc(N)cc45)cc3)cc2)cc1` ?
Outgoing: 262 to 266 °C

Incoming: Which melting point value is on record for Nc1cc(Nc2cccc(C(=O)Nc3ccc(Nc4ccnc5ccccc45)cc3)c2)nc(N)n1 (as salt: hydrochloride) [Cpd. FF2, dihydrochloride] ?
Outgoing: > 300 °C

Incoming: Which melting point value is on record for Cc1cc(Nc2ccc(NC(=O)c3ccc(Nc4ccnc5cc(N(C)C)ccc45)cc3)cc2)nc(N)n1 (as salt: hydrochloride) ?
Outgoing: 272 to 275 °C

Incoming: Which melting point value is on record for C[n+]1ccc(Nc2ccc(NC(=O)c3ccc(Nc4ccnc5ccc([N+](=O)[O-])cc45)cc3)cc2)cc1 (as salt: hydrochloride) ?
Outgoing: 183 to 187 °C

Incoming: Which melting point value is on record for `CN(C)c1ccc2nccc(Nc3ccc(C(=O)Nc4cccc(Nc5cc[n+](C)cc5)c4)cc3)c2c1` ?
Outgoing: > 300 °C
